# Test system: HCT116 cells
# Procedure Summary: siRNA sensitization of Enzastaurin drug response, CellTiter Glo cell viability
# Format: cell-based, human
# Conditions Used: Homo sapiens, HCT-116, 72 h, HCT116 transfected with HDAC2 siRNA SEQ ID NO: 2; 72 h Enzastaurin
Experimental Readout: pIC50
Interpret pIC50 as the negative base-10 log of the concentration measured in mol/L.

HCT116 cells / pIC50 / Cn1cc(C2=C(c3cn(C4CCN(Cc5ccccn5)CC4)c4ccccc34)C(=O)NC2=O)c2ccccc21 : value?
5.77
